Numbers sourced from patent US20180258140A1.

- assay.system: human FGFR1 kinase (human, UniProt P11362 398-822, limits assumed)
- Sequence (P11362 398-822 limits assumed): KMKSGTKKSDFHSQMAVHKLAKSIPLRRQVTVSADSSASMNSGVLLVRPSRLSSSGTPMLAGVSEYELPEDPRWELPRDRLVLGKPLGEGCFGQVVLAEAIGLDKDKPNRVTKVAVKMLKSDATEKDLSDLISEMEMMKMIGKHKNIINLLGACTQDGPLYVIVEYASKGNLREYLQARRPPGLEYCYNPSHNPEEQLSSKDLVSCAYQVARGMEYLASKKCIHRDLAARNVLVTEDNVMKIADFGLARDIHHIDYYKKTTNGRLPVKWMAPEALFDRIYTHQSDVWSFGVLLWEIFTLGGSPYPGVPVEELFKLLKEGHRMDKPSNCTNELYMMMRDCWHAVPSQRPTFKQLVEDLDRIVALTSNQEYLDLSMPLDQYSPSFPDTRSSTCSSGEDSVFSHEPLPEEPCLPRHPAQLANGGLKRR
- assay.details: cell-based or functional assay
*: point of attachment. Palmitoyl = CCCCCCCCCCCCCCCC(=O)*
Recorded FGFR1 Kinase % Inhibition values for a group of binders are listed next.
Give your result in % as a bare value.

Use the examples below as a reference point.
FGFR1 Kinase % Inhibition for Palmitoyl-KANLPLGNYKKP-NH2 (SMILES CCCCCCCCCCCCCCCC(=O)N[C@@H](CCCCN)C(=O)N[C@@H](C)C(=O)N[C@@H](CC(N)=O)C(=O)N[C@@H](CC(C)C)C(=O)N1CCC[C@H]1C(=O)N[C@@H](CC(C)C)C(=O)NCC(=O)N[C@@H](CC(N)=O)C(=O)N[C@@H](Cc1ccc(O)cc1)C(=O)N[C@@H](CCCCN)C(=O)N[C@@H](CCCCN)C(=O)N1CCC[C@H]1C(N)=O) [Peptide 2: Palm-Lys-Ala-Asn-Leu-Pro-Leu-Gly-Asn-Tyr-Lys-Lys-Pro-NH2] ?
0

Please do the same for Palmitoyl-KFNLPAGNYKKP-NH2 (SMILES CCCCCCCCCCCCCCCC(=O)N[C@@H](CCCCN)C(=O)N[C@@H](Cc1ccccc1)C(=O)N[C@@H](CC(N)=O)C(=O)N[C@@H](CC(C)C)C(=O)N1CCC[C@H]1C(=O)N[C@@H](C)C(=O)NCC(=O)N[C@@H](CC(N)=O)C(=O)N[C@@H](Cc1ccc(O)cc1)C(=O)N[C@@H](CCCCN)C(=O)N[C@@H](CCCCN)C(=O)N1CCC[C@H]1C(N)=O) [Peptide 6: Palm-Lys-Phe-Asn-Leu-Pro-Ala-Gly-Asn-Tyr-Lys-Lys-Pro-NH2] as well.
92.7

Continue with the binder presented below.
FGFR1 Kinase % Inhibition for Palmitoyl-KFALPLGNYKKP-NH2 (SMILES CCCCCCCCCCCCCCCC(=O)N[C@@H](CCCCN)C(=O)N[C@@H](Cc1ccccc1)C(=O)N[C@@H](C)C(=O)N[C@@H](CC(C)C)C(=O)N1CCC[C@H]1C(=O)N[C@@H](CC(C)C)C(=O)NCC(=O)N[C@@H](CC(N)=O)C(=O)N[C@@H](Cc1ccc(O)cc1)C(=O)N[C@@H](CCCCN)C(=O)N[C@@H](CCCCN)C(=O)N1CCC[C@H]1C(N)=O) [Peptide 3: Palm-Lys-Phe-Ala-Leu-Pro-Leu-Gly-Asn-Tyr-Lys-Lys-Pro-NH2] ?
85
